# Test system: [Candida] auris
# protocolText: Antifungal activity against Candida auris ATCC 6258 assessed as lowest compound concentration required to inhibit 50 % growth
# Type: functional, Candidozyma auris
Binary classification by INH, with 2 µg/mL as an inclusive lower bound for criterion met; all other cases are criterion not met.

C[C@@H]1[C@H](O)[C@@H](C)/C=C/C=C/C=C/C=C/C=C/C=C/C=C/[C@H](O[C@@H]2O[C@H](C)[C@@H](O)[C@H](N)[C@@H]2O)C[C@@H]2O[C@](O)(C[C@@H](O)C[C@@H](O)[C@H](O)CC[C@@H](O)C[C@@H](O)CC(=O)O[C@H]1C)C[C@H](O)[C@H]2C(=O)O; criterion not met
C[C@@H](c1ncncc1F)[C@](O)(Cn1cncn1)c1ccc(F)cc1F; criterion not met
COCc1ncnc(NC(C)CC#Cc2ccc(Oc3ccc(C(F)(F)F)cn3)cc2)c1OC (stereo not drawn); criterion met

Prompt: Assess whether reported INH for NC1CCCc2ccc(C3=NSC(c4cc(Cl)c(F)c(Cl)c4)(C(F)(F)F)C3)cc21 (stereo not drawn) sits at 2 µg/mL or higher.
Completion: criterion met

Prompt: Is the recorded value of INH equal to or greater than 2 µg/mL for this compound? Fc1ccc2[nH]cc(-c3ccsc3Br)c2c1
Completion: criterion met

Prompt: Please check the record CCCCCn1nc(-c2ccc(Cl)cc2)cnc1=O and state if its INH is at or above 2 µg/mL.
Completion: criterion not met

---

Please provide measured selectivity ratio for the entries that follow.
# protocolText: Selectivity index, ratio of IC50 for cytotoxicity against human HepG2 cells to IC50 for antifungal activity against Candida auris CDC0385
# Type: toxicity, cell-based
# appliedConditions: read-out: Ratio IC50

These recorded examples may help you get a feel for the data.
CCCCCn1nc(-c2ccc(Cl)cc2)cnc1=O; 1.5
Fc1ccc2[nH]cc(-c3ccsc3Br)c2c1; > 3.41
Cc1cc(Nc2ccccc2C)n(-c2nc(=O)cc(C)[nH]2)n1; > 69

Parameter requested: selectivity ratio. Apply to each item below.
1. NC1CCCc2ccc(C3=NSC(c4cc(Cl)c(F)c(Cl)c4)(C(F)(F)F)C3)cc21 (stereo unspecified)
2. Clc1cc2c(c3ncccc13)OCN(CCc1ccccc1)C2
3. COCc1ncnc(NC(C)CC#Cc2ccc(Oc3ccc(C(F)(F)F)cn3)cc2)c1OC (stereo unspecified)

Completion:
1: 6.29; 2: 10.6; 3: > 222

---

Assign log10(IC90) to each entry below.
# Tested on: [Candida] auris
# protocolText: Antifungal activity against Candida auris CDC0381 assessed as growth inhibition
# Assay type: functional, organism-based
# appliedConditions: Candidozyma auris
Recall that a logarithmic scale is used here: each number is log10 of IC90 in µg/mL.

NC1CCCc2ccc(C3=NSC(c4cc(Cl)c(F)c(Cl)c4)(C(F)(F)F)C3)cc21 (configuration not stated); 0.23
Fc1ccc2[nH]cc(-c3ccsc3Br)c2c1; 1.20
C[C@@H](c1ncncc1F)[C@](O)(Cn1cncn1)c1ccc(F)cc1F [VORICONAZOLE]; -0.26
C[C@@H]1[C@H](O)[C@@H](C)/C=C/C=C/C=C/C=C/C=C/C=C/C=C/[C@H](O[C@@H]2O[C@H](C)[C@@H](O)[C@H](N)[C@@H]2O)C[C@@H]2O[C@](O)(C[C@@H](O)C[C@@H](O)[C@H](O)CC[C@@H](O)C[C@@H](O)CC(=O)O[C@H]1C)C[C@H](O)[C@H]2C(=O)O [AMPHOTERICIN B]; -0.41
CCCCCn1nc(-c2ccc(Cl)cc2)cnc1=O; 0.20

Go through the items and report each one's log10(IC90).
1. Clc1cc2c(c3ncccc13)OCN(CCc1ccccc1)C2
2. Cc1cc(Nc2ccccc2C)n(-c2nc(=O)cc(C)[nH]2)n1

Completion:
0.33
0.29

---

# Tested on: [Candida] auris
# protocolText: Antifungal activity against Candida auris CDC0381 assessed as growth inhibition
# Type: functional, organism-based
# appliedConditions: Candidozyma auris
Note to self: use Yes only for IC50 readings below 0.8 µg/mL; a reading exactly at 0.8 µg/mL still gets No.

These solved cases illustrate the format of a correct answer.
Cc1cc(Nc2ccccc2C)n(-c2nc(=O)cc(C)[nH]2)n1; No
NC1CCCc2ccc(C3=NSC(c4cc(Cl)c(F)c(Cl)c4)(C(F)(F)F)C3)cc21 (configuration not stated); No
Clc1cc2c(c3ncccc13)OCN(CCc1ccccc1)C2; No
Fc1ccc2[nH]cc(-c3ccsc3Br)c2c1; No
C[C@@H](c1ncncc1F)[C@](O)(Cn1cncn1)c1ccc(F)cc1F [VORICONAZOLE]; Yes
C[C@@H]1[C@H](O)[C@@H](C)/C=C/C=C/C=C/C=C/C=C/C=C/C=C/[C@H](O[C@@H]2O[C@H](C)[C@@H](O)[C@H](N)[C@@H]2O)C[C@@H]2O[C@](O)(C[C@@H](O)C[C@@H](O)[C@H](O)CC[C@@H](O)C[C@@H](O)CC(=O)O[C@H]1C)C[C@H](O)[C@H]2C(=O)O [AMPHOTERICIN B]; Yes

Prompt: Is the reported IC50 for CCCCCn1nc(-c2ccc(Cl)cc2)cnc1=O strictly below 0.8 µg/mL?
Completion: Yes

---

Exercise: for every item that follows, state its recorded IC90.
# System: [Candida] auris
# protocolText: Antifungal activity against Candida auris ATCC 6258 assessed as growth inhibition
# Format: functional, organism-based
# appliedConditions: Candidozyma auris
Answers are plain numbers, in µg/mL.

Example compounds with recorded IC90:
C[C@@H]1[C@H](O)[C@@H](C)/C=C/C=C/C=C/C=C/C=C/C=C/C=C/[C@H](O[C@@H]2O[C@H](C)[C@@H](O)[C@H](N)[C@@H]2O)C[C@@H]2O[C@](O)(C[C@@H](O)C[C@@H](O)[C@H](O)CC[C@@H](O)C[C@@H](O)CC(=O)O[C@H]1C)C[C@H](O)[C@H]2C(=O)O; 0.54
Cc1cc(Nc2ccccc2C)n(-c2nc(=O)cc(C)[nH]2)n1; 2.38
CCCCCn1nc(-c2ccc(Cl)cc2)cnc1=O; 1.05
NC1CCCc2ccc(C3=NSC(c4cc(Cl)c(F)c(Cl)c4)(C(F)(F)F)C3)cc21 (configuration not stated); 2.62
Clc1cc2c(c3ncccc13)OCN(CCc1ccccc1)C2; 2.2

// switching to the query compound
Entry C[C@@H](c1ncncc1F)[C@](O)(Cn1cncn1)c1ccc(F)cc1F : IC90 on [Candida] auris = 0.76

---

# System: [Candida] auris
# protocolText: Antifungal activity against Candida auris CDC0385 assessed as growth inhibition
# Format: functional, organism-based
# appliedConditions: Candidozyma auris
# if measured IC90 < 4 µg/mL: condition met  # else: condition not met

Prompt: Say whether its IC90 is strictly beneath 4 µg/mL. Entry: C[C@@H]1[C@H](O)[C@@H](C)/C=C/C=C/C=C/C=C/C=C/C=C/C=C/[C@H](O[C@@H]2O[C@H](C)[C@@H](O)[C@H](N)[C@@H]2O)C[C@@H]2O[C@](O)(C[C@@H](O)C[C@@H](O)[C@H](O)CC[C@@H](O)C[C@@H](O)CC(=O)O[C@H]1C)C[C@H](O)[C@H]2C(=O)O [AMPHOTERICIN B]
Completion: condition met

Prompt: Regarding NC1CCCc2ccc(C3=NSC(c4cc(Cl)c(F)c(Cl)c4)(C(F)(F)F)C3)cc21 (stereo not drawn) , kindly confirm whether its IC90 is beneath 4 µg/mL.
Completion: condition met

Prompt: Please determine if Clc1cc2c(c3ncccc13)OCN(CCc1ccccc1)C2 is below 4 µg/mL in terms of IC90.
Completion: condition met

Prompt: Hello, is IC90 of the following molecule strictly smaller than 4 µg/mL? CCCCCn1nc(-c2ccc(Cl)cc2)cnc1=O
Completion: condition met

Prompt: Here's an entry: Cc1cc(Nc2ccccc2C)n(-c2nc(=O)cc(C)[nH]2)n1 . Is its IC90 below 4 µg/mL?
Completion: condition not met

Prompt: I'd appreciate it if you could check whether C[C@@H](c1ncncc1F)[C@](O)(Cn1cncn1)c1ccc(F)cc1F [VORICONAZOLE] has IC90 smaller than 4 µg/mL.
Completion: condition not met

Prompt: Decide: IC90 of COCc1ncnc(NC(C)CC#Cc2ccc(Oc3ccc(C(F)(F)F)cn3)cc2)c1OC (stereo not drawn) strictly below 4 µg/mL?
Completion: condition not met

Prompt: Answer whether the molecule Fc1ccc2[nH]cc(-c3ccsc3Br)c2c1 has IC90 strictly less than 4 µg/mL
Completion: condition not met

---

Could you please report measured pIC50 for the items listed next?
# protocolText: Cytotoxicity against human HepG2 cells assessed as growth inhibition by XTT assay
# Assay type: toxicity, cell-based
pIC50: −log10 of the molar value.

Record excerpt, results attached:
Fc1ccc2[nH]cc(-c3ccsc3Br)c2c1; < 4.00
COCc1ncnc(NC(C)CC#Cc2ccc(Oc3ccc(C(F)(F)F)cn3)cc2)c1OC (stereo not drawn); < 4.00

Entry Cc1cc(Nc2ccccc2C)n(-c2nc(=O)cc(C)[nH]2)n1 ; pIC50 = < 4.00

Sourced from ChEMBL document CHEMBL5223186
